Where do the numbers come from? From patent US20260125400A1.

Biological target: TYK2 (Homo sapiens)
Construct: Degradation of TYK2 in cells was quantitatively measured using Meso Scale Discovery (MSD) technology; endogenous in cells; host or cells: OCI-LY10
Sequence (P29597 whole entry): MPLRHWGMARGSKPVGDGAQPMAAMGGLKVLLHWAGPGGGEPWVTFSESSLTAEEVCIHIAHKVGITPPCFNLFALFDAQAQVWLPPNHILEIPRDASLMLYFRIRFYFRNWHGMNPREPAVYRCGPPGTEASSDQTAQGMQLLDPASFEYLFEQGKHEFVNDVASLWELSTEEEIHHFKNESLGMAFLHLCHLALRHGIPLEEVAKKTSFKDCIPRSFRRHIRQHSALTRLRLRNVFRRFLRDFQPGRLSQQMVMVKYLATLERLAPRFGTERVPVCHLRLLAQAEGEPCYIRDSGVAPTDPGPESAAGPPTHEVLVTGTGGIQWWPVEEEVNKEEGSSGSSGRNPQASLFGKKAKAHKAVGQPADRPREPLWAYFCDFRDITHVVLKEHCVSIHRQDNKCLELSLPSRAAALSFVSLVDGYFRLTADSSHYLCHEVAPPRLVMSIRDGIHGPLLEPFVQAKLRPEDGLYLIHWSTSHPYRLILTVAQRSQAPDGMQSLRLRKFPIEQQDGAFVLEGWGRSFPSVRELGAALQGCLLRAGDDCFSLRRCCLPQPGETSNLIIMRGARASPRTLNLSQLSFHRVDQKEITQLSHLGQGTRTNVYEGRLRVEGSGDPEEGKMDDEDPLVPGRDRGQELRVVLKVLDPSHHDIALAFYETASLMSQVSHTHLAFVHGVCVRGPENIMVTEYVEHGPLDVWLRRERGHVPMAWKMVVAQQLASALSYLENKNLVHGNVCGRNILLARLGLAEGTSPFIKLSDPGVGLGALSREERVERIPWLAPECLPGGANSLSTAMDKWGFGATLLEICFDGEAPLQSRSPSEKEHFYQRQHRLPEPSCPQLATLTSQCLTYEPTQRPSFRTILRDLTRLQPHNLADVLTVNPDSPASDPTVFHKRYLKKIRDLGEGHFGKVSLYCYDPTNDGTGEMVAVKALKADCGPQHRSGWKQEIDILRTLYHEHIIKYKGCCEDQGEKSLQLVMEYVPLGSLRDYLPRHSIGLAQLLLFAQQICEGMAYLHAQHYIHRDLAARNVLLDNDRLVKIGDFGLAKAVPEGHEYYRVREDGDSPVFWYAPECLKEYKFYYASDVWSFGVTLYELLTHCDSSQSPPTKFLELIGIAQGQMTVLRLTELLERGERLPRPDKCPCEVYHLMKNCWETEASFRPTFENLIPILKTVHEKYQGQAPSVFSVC
Assay: TYK2 MSD degradation in OCI-LY10 cells
Type: cell-based
Conditions: OCI-LY10 cells, 4 to 24 hours incubation, read-out: TYK2 MSD OCI-LY10 Rel-DC50
Each entry below carries its recorded DC50.

CNc1cc(N2CCc3c(CC4CCC(N5CCC(N6CCN(C(=O)c7ccc(Cl)c(N8CCC(=O)NC8=O)c7)CC6)C(F)(F)C5)CC4)cccc32)nn2c(C(=O)NC3CC3F)cnc12 (stereo not drawn) [I-708] ... < 1 nM
CNc1cc(N2CCc3c(-c4ccc(CN5CCC6(CCN(C(=O)c7cc(Cl)c(F)c(N8CCC(=O)NC8=O)c7)CC6)C(F)(F)C5)cn4)cccc32)nn2c(C(=O)N[C@@H]3C[C@@H]3F)cnc12 [I-792] ... < 10 nM

Continue with the next molecule.
IN: Record CNc1cc(N2CCc3c(CN4CC[C@H](N5CCC6(CCN(C(=O)c7ccc(Cl)c(N8CCC(=O)NC8=O)c7)CC6)CC5)C(F)(F)C4)cccc32)nn2c(C(=O)N[C@@H]3C[C@@H]3F)cnc12 [I-715] : what is its DC50 with TYK2 (Homo sapiens)?
OUT: < 1 nM

---

Biological target: TYK2 (Homo sapiens)
Construct: Degradation of TYK2 in cells was quantitatively measured using Meso Scale Discovery (MSD) technology; endogenous in cells; host or cells: OCI-LY10
Test: TYK2 MSD degradation in OCI-LY10 cells
Assay type: cell-based
Settings: OCI-LY10 cells, 4 to 24 hours incubation
Property label: TYK2 MSD OCI-LY10 Dmax %

CNc1cc(N2CCc3c(-c4ccc(CN5CCC6(CCN(C(=O)c7cc(F)c(OC)c(N8CCC(=O)NC8=O)c7)CC6)C(F)(F)C5)cn4)cccc32)nn2c(C(=O)N[C@@H]3C[C@@H]3F)cnc12 ... B (B (90 to >75%))
CNc1cc(N2CCc3c(CN4CCC(N5CC(N6CCN(c7cccc8c7n(C)c(=O)n8C7CCC(=O)NC7=O)CC6)C5)C(F)(F)C4)cccc32)nn2c(C(=O)N[C@@H]3C[C@@H]3F)cnc12 (some centres unmarked) ... B (B (90 to >75%))
CNc1cc(N2CCc3c(-c4ccc(CN5CCC6(CCN(C(=O)c7cc(Cl)c(F)c(N8CCC(=O)NC8=O)c7)CC6)C(F)(F)C5)cn4)cccc32)nn2c(C(=O)N[C@@H]3C[C@@H]3F)cnc12 ... B (B (90 to >75%))

---

Biological target: TYK2 (Homo sapiens)
Construct: Degradation of TYK2 in cells was quantitatively measured using Meso Scale Discovery (MSD) technology; endogenous in cells; host or cells: OCI-LY10
Assay: TYK2 MSD degradation in OCI-LY10 cells
Type: cell-based
Conditions: TYK2 degradation in OCI-LY10 cells, 4 to 24 hours incubation
Property label: TYK2 MSD OCI-LY10 Dmax %

Consider the reported TYK2 MSD OCI-LY10 Dmax % for these molecules:
CNc1cc(N2CCc3c(-c4ncc(CN5CC6(CCN(C(=O)c7cc(OC)c(C)c(N8CCC(=O)NC8=O)c7)CC6(F)F)C5)cc4F)cccc32)nn2c(C(=O)N[C@@H]3CC[C@H]3OC)cnc12 ... A (A (>90%))
CNc1cc(N2CCc3c(-c4ccc(CN5CC6(CCN(C(=O)c7ccc(C)c(N8CCC(=O)NC8=O)c7)CC6)C5)cn4)cccc32)nn2c(C(=O)N[C@@H]3C[C@@H]3F)cnc12 ... A (A (>90%))
CNc1cc(N2CCc3c(-c4ccc(CN5CCC6(CCN(C(=O)c7ccc(Cl)c(N8CCC(=O)NC8=O)c7)CC6)C(F)(F)C5)cn4)cccc32)nn2c(C(=O)N[C@@H]3C[C@@H]3F)cnc12 ... A (A (>90%))
CNc1cc(N2CCc3c(-c4ccc(CN5CC6(CCN(C(=O)c7ccc(C(F)(F)F)c(N8CCC(=O)NC8=O)c7)CC6(F)F)C5)cn4)cccc32)nn2c(C(=O)N[C@@H]3C[C@@H]3F)cnc12 ... C (C (75 to 50%))
CNc1cc(N2CCc3c(-c4ccc(CN5CC6(CCN(C(=O)c7ccc(Cl)c(N8CCC(=O)NC8=O)c7)CC6(F)F)C5)cn4)cccc32)nn2c(C(=O)N[C@@H]3C[C@@H]3F)cnc12 ... A (A (>90%))
CNc1cc(N2CCc3c(CN4CCC(N5CCC(C6CCN(c7ccc8c(c7)n(C)c(=O)n8C7CCC(=O)NC7=O)CC6)CC5)C(F)(F)C4)cccc32)nn2c(C(=O)N[C@H]3C[C@H]3F)cnc12 (stereo partly shown) ... C (C (75 to 50%))

IN: Reported TYK2 MSD OCI-LY10 Dmax %, molecule CNc1cc(N2CCc3c(-c4ccc(CN5CCC6(CC5)CCN(c5cccc7c5n(C)c(=O)n7C5CCC(=O)NC5=O)CC6)cn4)cccc32)nn2c(C(=O)NC3CC3)cnc12 (stereo not shown) : ____
OUT: C (C (75 to 50%))

IN: Dear colleague, I am looking for the recorded TYK2 MSD OCI-LY10 Dmax % of the following molecule: CNc1cc(N2CC3(CCN(Cc4ccc5c(c4)n(C)c(=O)n5C4CCC(=O)NC4=O)CC3)c3ccccc32)nn2c(C(=O)NC3CC3)cnc12 (stereo not shown)
OUT: D (D (<50%))

IN: Give its TYK2 MSD OCI-LY10 Dmax % value. Item: CNc1cc(N2CCc3c(-c4ccc(CN5CCC(N6CCN(c7ccc(C8CCC(=O)NC8=O)c(Cl)c7)CC6)C(F)(F)C5)cn4)cccc32)nn2c(C(=O)N[C@H]3C[C@H]3F)cnc12 (stereo partly shown)
OUT: D (D (<50%))

---

Biological target: TYK2 (Homo sapiens)
Construct: Degradation of TYK2 in cells was quantitatively measured using Meso Scale Discovery (MSD) technology; endogenous in cells; host or cells: OCI-LY10
Experiment: TYK2 MSD degradation in OCI-LY10 cells
Assay type: cell-based
Conditions: TYK2 degradation in OCI-LY10 cells, 4 to 24 hours incubation, read-out: TYK2 MSD OCI-LY10 Rel-DC50
# DC50 annotations

Sample answers from the record:
CNc1cc(N2CCc3c(-c4ccc(CN5CCC6(CC5)CC(Oc5ccc(N7CCC(=O)NC7=O)c(Cl)c5)C6)cn4)cccc32)nn2c(C(=O)N[C@@H]3C[C@@H]3F)cnc12 ... > 100 nM
CNc1cc(N2CCc3c(-c4ccc(CN5CCC6(CCC(COc7ccc(N8CCC(=O)NC8=O)c(Cl)c7)CC6)CC5)cn4)cccc32)nn2c(C(=O)N[C@@H]3C[C@@H]3F)cnc12 ... < 10 nM
CNc1cc(N2CCc3c(-c4ncc(CN5CC6(CCN(C(=O)c7cc(C)c(C)c(N8CCC(=O)NC8=O)c7)CC6(F)F)C5)cc4F)cccc32)nn2c(C(=O)N[C@@H]3C[C@@H]3F)cnc12 ... < 1 nM
CNc1cc(N2CCc3c(C#CCN4CCC(N5CC6(CN(C(=O)c7ccc(Cl)c(N8CCC(=O)NC8=O)c7)C6)C5)C(F)(F)C4)cccc32)nn2c(C(=O)N[C@@H]3C[C@@H]3F)cnc12 (some centres unmarked) ... < 1 nM

IN: Would you mind telling me what DC50 value was observed for `CNc1cc(N2CCc3c(-c4ncc(CN5CC6(CCN(C(=O)c7ccc(Cl)c(N8CCC(=O)NC8=O)c7)CC6(F)F)C5)cc4F)cccc32)nn2c(C(=O)N[C@@H]3CC[C@H]3OC)cnc12` ?
OUT: < 1 nM

---

Target: TYK2 (Homo sapiens)
Construct: Degradation of TYK2 in cells was quantitatively measured using Meso Scale Discovery (MSD) technology; endogenous in cells; host or cells: OCI-LY10
Assay: TYK2 MSD degradation in OCI-LY10 cells
Assay type: cell-based
Conditions: TYK2 degradation in OCI-LY10 cells, 4 to 24 hours incubation
Property label: TYK2 MSD OCI-LY10 Dmax %

CNc1cc(N2CCc3c(-c4ccc(CN5CC6(C5)CN(C(=O)c5ccc(Cl)c(N7CCC(=O)NC7=O)c5)C6)cn4)cccc32)nn2c(C(=O)NC3CC3F)cnc12 (centres unmarked) ... D (D (<50%))
CNc1cc(N2CCc3c(CN4CCC(N5CCC6(CC5)CN(C(=O)c5cc(N7CCC(=O)NC7=O)c(Cl)c(C)n5)C6)C(F)(F)C4)cccc32)nn2c(C(=O)N[C@@H]3CC[C@H]3OC)cnc12 (some centres unmarked) ... B (B (90 to >75%))
CNc1cc(N2CCc3c(CN4CCC(N5CCN(CCc6ccc(Cl)c(C7CCC(=O)NC7=O)c6)CC5)C(F)(F)C4)cccc32)nn2c(C(=O)NC3CC3F)cnc12 (centres unmarked) ... B (B (90 to >75%))
CNc1cc(-c2ccc(N3CCC(CN4CC5(CCN(C(=O)c6ccc(Cl)c(N7CCC(=O)NC7=O)c6)CC5(F)F)C4)CC3)cc2)nn2c(C(=O)N[C@@H]3C[C@@H]3F)cnc12 ... D (D (<50%))
